Give MIC Enterococcus faecalis (GC 4553) for every item shown.
test system: Enterococcus sp.; assay: in vitro antibacterial evaluation, MIC by broth dilution; type: cell-based; conditions: broth dilution, inoculum 5×10^5 CFU/mL, 18 hours at 35° C.; strain GC 4553

Ask | Query the reported MIC Enterococcus faecalis (GC 4553) for Enterococcus sp.; item: CC(c1ccccc1)C1NC(=O)CNC(=O)C(CO)NC(=O)C(C(O)C2CNC(=N)N2C2OC(CO)C(O)C3OC(C)(C)OC32)NC(=O)C(C(O)C2CNC(=N)N2)NC(=O)C(Cc2ccc(OC3OC(CO)C(OC4OC(CO)C(O)C(O)C4O)C4OC(C)(C)OC34)cc2)NC1=O (centres unmarked) [Example 229]
Reply | >128 µg/mL

Ask | Query the reported MIC Enterococcus faecalis (GC 4553) for Enterococcus sp.; item: CC(C)=CCOc1cccc(C2OCC3OC(OC4C(CO)OC(Oc5ccc(CC6NC(=O)C(C(C)c7ccccc7)NC(=O)CNC(=O)C(CO)NC(=O)C(C(O)C7CNC(=N)N7C7OC(CO)C(O)C(O)C7O)NC(=O)C(C(O)C7CNC(=N)N7)NC6=O)cc5)C(O)C4O)C(O)C(O)C3O2)c1 (centres unmarked) [Example 165]
Reply | 16 µg/mL

Ask | Query the reported MIC Enterococcus faecalis (GC 4553) for Enterococcus sp.; item: CC(c1ccccc1)C1NC(=O)CNC(=O)C(CO)NC(=O)C(C(O)C2CNC(=N)N2C2OC(CO)C(O)C(O)C2O)NC(=O)C(C(O)C2CNC(=N)N2)NC(=O)C(Cc2ccc(OC3OC(CO)C(OC4OC5COC(c6ccc(C(=O)c7ccccc7)cc6)OC5C(O)C4O)C(O)C3O)cc2)NC1=O (centres unmarked) [Example 173]
Reply | 2 µg/mL

Ask | Query the reported MIC Enterococcus faecalis (GC 4553) for Enterococcus sp.; item: CC(c1ccccc1)C1NC(=O)CNC(=O)C(CO)NC(=O)C(C(O)C2CNC(=N)N2C2OC(CO)C(O)C(O)C2O)NC(=O)C(C(O)C2CNC(=N)N2)NC(=O)C(Cc2ccc(OC3OC(CO)C(OC4OC(CO)C(O)C5OC6(CCCCCCCCCCCC6)OC45)C(O)C3O)cc2)NC1=O (centres unmarked) [Example 210a]
Reply | 8 µg/mL

Ask | Query the reported MIC Enterococcus faecalis (GC 4553) for Enterococcus sp.; item: N=C1NCC(C(O)C2NC(=O)C(Cc3ccc(OC4OC(CO)C(OC5OC6COC7(OC6C(O)C5O)C5CC6CC(C5)CC7C6)C(O)C4O)cc3)NC(=O)C(Cc3ccccc3)NC(=O)CNC(=O)C(CO)NC(=O)C(C(O)C3CNC(=N)N3C3OC(CO)C(O)C(O)C3O)NC2=O)N1 (centres unmarked) [Example 220]
Reply | 1 µg/mL

Ask | Query the reported MIC Enterococcus faecalis (GC 4553) for Enterococcus sp.; item: CC(c1ccccc1)C1NC(=O)CNC(=O)C(CO)NC(=O)C(C(O)C2CNC(=N)N2C2OC(CO)C(O)C(O)C2O)NC(=O)C(C(O)C2CNC(=N)N2)NC(=O)C(Cc2ccc(OC3OC(CO)C(OC4OC5COC(c6ccc(C=Cc7ccccc7)cc6)OC5C(O)C4O)C(O)C3O)cc2)NC1=O (centres unmarked) [Example 172]
Reply | 4 µg/mL

Ask | Query the reported MIC Enterococcus faecalis (GC 4553) for Enterococcus sp.; item: N=C1NCC(C(O)C2NC(=O)C(CC3CCC(OC4OC(CO)C(OC5OC6COC7(OC6C(O)C5O)C5CC6CC(C5)CC7C6)C(O)C4O)CC3)NC(=O)C(CC3CCCCC3)NC(=O)CNC(=O)C(CO)NC(=O)C(C(O)C3CNC(=N)N3C3OC(CO)C(O)C(O)C3O)NC2=O)N1 (single isomer, unassigned) [Example 222]
Reply | >64 µg/mL

Ask | Query the reported MIC Enterococcus faecalis (GC 4553) for Enterococcus sp.; item: CC(c1ccccc1)C1NC(=O)CNC(=O)C(CO)NC(=O)C(C(O)C2CNC(=N)N2C2OC(CO)C(O)C(O)C2O)NC(=O)C(C(O)C2CNC(=N)N2)NC(=O)C(Cc2ccc(OC3OC(CO)C(OC4OC(CO)C(O)C(O)C4OCc4ccc(OCc5ccccc5)cc4)C(O)C3O)cc2)NC1=O (centres unmarked) [Example 231b]
Reply | 8 to 128 µg/mL
